Assay summary: Molar enthalpy of transition or fusion
Condition details: Crystal; DSC
Value type: Molar enthalpy of transition or fusion (kcal/mol)
Kindly answer with a numeric value in kcal/mol, unit omitted.

Sample answers from the record:
>  <Compound>
Clc1ccc(NC2=NCCC3(CCCCC3)S2)cc1 [N-(4-chlorophenyl)-1-thia-3-azaspiro[5.5]undec-2-en-2-amine]

>  <Value type>
Molar enthalpy of transition or fusion

>  <Units of measure>
kcal/mol

>  <Experimental result>
10

$$$$
>  <Compound>
Cc1ccc(NC2=NCCC3(CCCCC3)S2)cc1 [N-(4-methylphenyl)-1-thia-3-azaspiro[5.5]undec-2-en-2-amine]

>  <Value type>
Molar enthalpy of transition or fusion

>  <Units of measure>
kcal/mol

>  <Experimental result>
7.1

$$$$
>  <Compound>
CC(C)c1ccc(NC2=NCCC3(CCCCC3)S2)cc1

>  <Value type>
Molar enthalpy of transition or fusion

>  <Units of measure>
kcal/mol

>  <Experimental result>
6.98

$$$$

// next entry
Quick note, Molar enthalpy of transition or fusion for c1ccc(NC2=NCCC3(CCCCC3)S2)cc1 [N-phenyl-1-thia-3-azaspiro[5.5]undec-2-en-2-amine] landed at 5.16

====

Condition details: 384.15 K; Crystal; Transpiration method
Value type: vapor or sublimation pressure (kPa)
# number only, unit kPa dropped from output

>  <Molecule>
Clc1ccc(NC2=NCCC3(CCCCC3)S2)cc1 [N-(4-chlorophenyl)-1-thia-3-azaspiro[5.5]undec-2-en-2-amine]

>  <vapor or sublimation pressure / kPa>
7.05e-05

$$$$
>  <Molecule>
FC(F)(F)c1ccc(NC2=NCCC3(CCCCC3)S2)cc1

>  <vapor or sublimation pressure / kPa>
4.95e-05

$$$$
>  <Molecule>
CCc1ccc(NC2=NCCC3(CCCCC3)S2)cc1 [N-(4-ethylphenyl)-1-thia-3-azaspiro[5.5]undec-2-en-2-amine]

>  <vapor or sublimation pressure / kPa>
0.0002567

$$$$

Note: attention shifts to another entry.
Notebook: Cc1ccc(NC2=NCCC3(CCCCC3)S2)cc1 [N-(4-methylphenyl)-1-thia-3-azaspiro[5.5]undec-2-en-2-amine] , vapor or sublimation pressure read as 0.0003508
